target: human CYP2J2, CYP2J2 (gene 1573); assay: NVS_ADME_hCYP2J2: NovaScreen (NVS) CYP450-related Enzyme Activity (ADME) Assay for human CYP2J2 (AID 2283106)
Inconclusive results are not listed. The source made the active and inactive calls. How the source made its calls: active means hit-call score of the fitted dose curve at least 0.9, where 1 is the maximum; inconclusive means response in the unintended direction; inactive means score below 0.9.
So I've got a bunch of molecules here, and I need their AC50 values.

Worked examples, 2 molecules total:
N#CSCSc1nc2ccccc2s1	466 nM (active)
CCCCOCCOCCOCc1cc2c(cc1CCC)OCO2	116 nM (active)

// next entry
Ask: Look up AC50 with human CYP2J2, CYP2J2 (gene 1573) for this molecule: "C#CCOC(=O)[C@@H](C)Oc1ccc(Oc2ncc(Cl)cc2F)cc1"
Reply: 189 nM (active)

Ref: PubChem BioAssay (EPA / NIEHS)
